Measured Potency shift value values are reported for all entries that follow.
- System: HIV
- Format: cell-based
- stated-conditions: EC50 in the presence of human serum (25%) versus without human serum, MT-4 cells

{"compound-structure-string": "Cc1ccc(-c2c([C@H](OC(C)(C)C)C(=O)O)c(Cl)c3c4c2cc(C)n4CCN3c2nc3c(s2)CN(C)CC3)cc1", "Potency shift value": 10}
{"compound-structure-string": "Cc1ccc(-c2c([C@H](OC(C)(C)C)C(=O)O)c(C)c3c4c2cc(C)n4CCN3c2ncc(C3=CCN(C)CC3)cn2)cc1", "Potency shift value": 3.9}
{"compound-structure-string": "Cc1ccc(-c2c([C@H](OC(C)(C)C)C(=O)O)c(C)c3c4c2cc(C)n4CCN3c2ncc(N3CCN(C)CC3)cn2)cc1", "Potency shift value": 3.6}
{"compound-structure-string": "Cc1ccc(-c2c([C@H](OC(C)(C)C)C(=O)O)c(C)c3c4c2cc(C)n4CCN3c2ncc(OCCN3CCOCC3)cn2)cc1", "Potency shift value": 5.9}
{"compound-structure-string": "Cc1c([C@H](OC(C)(C)C)C(=O)O)c(-c2ccc(Cl)cc2)c2cc(C)n3c2c1N(c1ncc(OCCO)cn1)CC3", "Potency shift value": 10}
{"compound-structure-string": "[2H]C([2H])([2H])Oc1cnc(N2CCn3c(C)cc4c(-c5ccc(Cl)cc5)c([C@H](OC(C)(C)C)C(=O)O)c(C)c2c43)nc1", "Potency shift value": 15}
